- ASSAYED SYSTEM: mMC5R (Mus musculus)
- Sequence (P41149 whole entry): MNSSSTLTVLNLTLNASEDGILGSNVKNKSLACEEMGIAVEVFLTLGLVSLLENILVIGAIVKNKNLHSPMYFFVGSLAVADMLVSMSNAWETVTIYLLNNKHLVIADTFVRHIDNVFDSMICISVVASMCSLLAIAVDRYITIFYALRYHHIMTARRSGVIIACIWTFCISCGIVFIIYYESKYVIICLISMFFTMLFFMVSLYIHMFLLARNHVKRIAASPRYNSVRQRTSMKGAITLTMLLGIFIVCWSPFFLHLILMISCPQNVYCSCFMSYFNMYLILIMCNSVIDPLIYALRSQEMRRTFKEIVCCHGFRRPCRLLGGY
- ASSAY PROTOCOL: CRE/β-galactosidase reporter gene bioassay, agonist activity at mMC5R
- Format: cell-based
- EXPERIMENTAL PARAMETERS: comparisons are to reference peptide 1
Square brackets hold non-standard residues; d marks the D form. Peptide text beside a SMILES is read from it. * marks the point of attachment. Bip = N[C@@H](Cc1ccc(-c2ccccc2)cc1)C(=O)O; dBip = N[C@H](Cc1ccc(-c2ccccc2)cc1)C(=O)O; dPhe(4-I) = N[C@H](Cc1ccc(I)cc1)C(=O)O; Bta = N[C@@H](Cc1csc2ccccc12)C(=O)O; Tic = O=C(O)[C@@H]1Cc2ccccc2CN1; Octanoyl = CCCCCCCC(=O)*
ENDPOINT: mMC5R pharmacology in words

Solved cases below.
CC(=O)N[C@@H](Cc1c[nH]cn1)C(=O)N[C@H](Cc1ccc(-c2ccccc2)cc1)C(=O)N[C@@H](CCCNC(=N)N)C(=O)N[C@H](Cc1ccc(-c2ccccc2)cc1)C(N)=O [Peptide 35, Ac-His-DBip-Arg-DBip-NH2] (Ac-H[dBip]R[dBip]-NH2)
less potent
CC(=O)N[C@@H](Cc1c[nH]cn1)C(=O)N[C@H](Cc1ccc(I)cc1)C(=O)N[C@@H](CCCNC(=N)N)C(=O)N1Cc2ccccc2C[C@H]1C(N)=O [Peptide 31, Ac-His-(pI)DPhe-Arg-Tic-NH2] (Ac-H[dPhe(4-I)]R[Tic]-NH2)
less potent
CC(=O)N[C@@H](Cc1c[nH]cn1)C(=O)N[C@H](Cc1ccc(-c2ccccc2)cc1)C(=O)N[C@@H](CCCNC(=N)N)C(=O)N[C@@H](Cc1ccc(-c2ccccc2)cc1)C(N)=O [Peptide 33, Ac-His-DBip-Arg-Bip-NH2] (Ac-H[dBip]R[Bip]-NH2)
less potent
CCCCCCCC(=O)N[C@@H](Cc1c[nH]cn1)C(=O)N[C@H](Cc1ccccc1)C(=O)N[C@@H](CCCNC(=N)N)C(=O)N[C@H](Cc1ccc(-c2ccccc2)cc1)C(N)=O [Peptide 8, Octanoyl-His-DPhe-Arg-DBip-NH2] (Octanoyl-H[dF]R[dBip]-NH2)
decreased potencies
CC(=O)N[C@@H](Cc1c[nH]cn1)C(=O)N[C@H](Cc1ccc(-c2ccccc2)cc1)C(=O)N[C@@H](CCCNC(=N)N)C(=O)N[C@@H](Cc1csc2ccccc12)C(N)=O [Peptide 34, Ac-His-DBip-Arg-3Bal-NH2] (Ac-H[dBip]R[Bta]-NH2)
equipotent agonists

Using the record for CCCCCCCC(=O)N[C@@H](Cc1c[nH]cn1)C(=O)N[C@H](Cc1ccccc1)C(=O)N[C@@H](CCCNC(=N)N)C(=O)N[C@@H](Cc1ccccc1)C(N)=O [Peptide 5, Octanoyl-His-DPhe-Arg-Phe-NH2] (Octanoyl-H[dF]RF-NH2) , report its mMC5R pharmacology in words.
decreased potencies

Bench note: what mMC5R pharmacology in words did CC(=O)N[C@@H](Cc1c[nH]cn1)C(=O)N[C@H](Cc1ccc(I)cc1)C(=O)N[C@@H](CCCNC(=N)N)C(=O)N[C@@H](Cc1ccccc1)C(N)=O [Peptide 32, Ac-His-(pI)DPhe-Arg-Phe-NH2] (Ac-H[dPhe(4-I)]RF-NH2) show?
equipotent agonists

====

- ASSAYED SYSTEM: mMC4R (Mus musculus)
- ASSAY PROTOCOL: Antagonist Schild analysis against agonist MTII at mMC4R
- Type: cell-based
- EXPERIMENTAL PARAMETERS: Ant = antagonist; SA = some stimulatory activity at 100 µM
Square brackets hold non-standard residues; d marks the D form. Peptide text beside a SMILES is read from it. * marks the point of attachment. Bip = N[C@@H](Cc1ccc(-c2ccccc2)cc1)C(=O)O; dBip = N[C@H](Cc1ccc(-c2ccccc2)cc1)C(=O)O; Bta = N[C@@H](Cc1csc2ccccc12)C(=O)O; Octanoyl = CCCCCCCC(=O)*
ENDPOINT: mMC4R pharmacology class printed in Fold Diff. column (Ant, SA)

CC(=O)N[C@@H](Cc1c[nH]cn1)C(=O)N[C@H](Cc1ccc(-c2ccccc2)cc1)C(=O)N[C@@H](CCCNC(=N)N)C(=O)N[C@@H](Cc1csc2ccccc12)C(N)=O [Peptide 34, Ac-His-DBip-Arg-3Bal-NH2] (Ac-H[dBip]R[Bta]-NH2)
SA Ant
CC(=O)N[C@@H](Cc1c[nH]cn1)C(=O)N[C@H](Cc1ccc(-c2ccccc2)cc1)C(=O)N[C@@H](CCCNC(=N)N)C(=O)N[C@H](Cc1ccc(-c2ccccc2)cc1)C(N)=O [Peptide 35, Ac-His-DBip-Arg-DBip-NH2] (Ac-H[dBip]R[dBip]-NH2)
SA Ant
CC(=O)N[C@@H](Cc1c[nH]c2ccccc12)C(=O)N[C@H](Cc1ccc(-c2ccccc2)cc1)C(=O)N[C@@H](CCCNC(=N)N)C(=O)N[C@@H](Cc1c[nH]c2ccccc12)C(N)=O [Peptide 18, Ac-Trp-DBip-Arg-Trp-NH2] (Ac-W[dBip]RW-NH2)
SA Ant
CCCCCCCC(=O)N[C@@H](Cc1c[nH]cn1)C(=O)N[C@H](Cc1ccccc1)C(=O)N[C@@H](CCCNC(=N)N)C(=O)N[C@@H](Cc1ccc(-c2ccccc2)cc1)C(N)=O [Peptide 2, Octanoyl-His-DPhe-Arg-Bip-NH2] (Octanoyl-H[dF]R[Bip]-NH2)
Ant

====

- ASSAYED SYSTEM: mMC4R (Mus musculus)
- ASSAY PROTOCOL: CRE/β-galactosidase reporter gene bioassay, agonist activity at mMC4R
- Assay type: cell-based
Square brackets hold non-standard residues; d marks the D form. Peptide text beside a SMILES is read from it. 1Nal = N[C@@H](Cc1cccc2ccccc12)C(=O)O
ENDPOINT: EC50 (nM)
Kindly provide the numeric value in nM only, without the unit symbol.

Provide the documented EC50 with mMC4R (Mus musculus) as the system for CCCCCCCC(=O)N[C@@H](Cc1c[nH]cn1)C(=O)N[C@H](Cc1ccc(-c2ccccc2)cc1)C(=O)N[C@@H](CCCNC(=N)N)C(=O)N[C@@H](Cc1c[nH]c2ccccc12)C(N)=O [Peptide 7, Octanoyl-His-DBip-Arg-Trp-NH2]
500

GET /values?readout=EC50&system=mMC4R (Mus musculus)&item= CCCCCCCC(=O)N[C@H](Cc1c[nH]cn1)C(=O)N[C@H](Cc1ccccc1)C(=O)N[C@@H](CCCNC(=N)N)C(=O)N[C@@H](Cc1c[nH]c2ccccc12)C(N)=O [Peptide 9, Octanoyl-DHis-DPhe-Arg-Trp-NH2]
340

// lookup EC50 | system=mMC4R (Mus musculus) | key= CC(=O)N[C@@H](Cc1c[nH]c2ccccc12)C(=O)N[C@H](Cc1ccccc1)C(=O)N[C@@H](CCCNC(=N)N)C(=O)N[C@@H](Cc1cccc2ccccc12)C(N)=O [Peptide 24, Ac-Trp-DPhe-Arg-Nal(1’)-NH2] (Ac-W[dF]R[1Nal]-NH2)
1100

====

- ASSAYED SYSTEM: mMC4R (Mus musculus, UniProt P56450)
- Sequence (P56450 whole entry): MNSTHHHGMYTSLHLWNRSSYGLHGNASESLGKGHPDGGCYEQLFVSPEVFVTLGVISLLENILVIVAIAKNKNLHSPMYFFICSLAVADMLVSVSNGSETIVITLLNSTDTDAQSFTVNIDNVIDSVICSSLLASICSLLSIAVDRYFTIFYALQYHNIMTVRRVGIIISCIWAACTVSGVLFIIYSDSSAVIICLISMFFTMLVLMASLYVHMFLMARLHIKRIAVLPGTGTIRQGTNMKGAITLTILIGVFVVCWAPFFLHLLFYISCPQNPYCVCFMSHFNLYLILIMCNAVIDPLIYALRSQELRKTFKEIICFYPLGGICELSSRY
- ASSAY PROTOCOL: Antagonist Schild analysis against agonist MTII at mMC4R
- Type: cell-based
Square brackets hold non-standard residues; d marks the D form. Peptide text beside a SMILES is read from it. * marks the point of attachment. Bip = N[C@@H](Cc1ccc(-c2ccccc2)cc1)C(=O)O; dBip = N[C@H](Cc1ccc(-c2ccccc2)cc1)C(=O)O; dPhe(4-I) = N[C@H](Cc1ccc(I)cc1)C(=O)O; 4Pal = N[C@@H](Cc1ccncc1)C(=O)O; Octanoyl = CCCCCCCC(=O)*
One threshold, 0.005 µM, splits the recorded Kb values: lower ones are Condition met, equal or higher ones are Condition not met.

Please determine if CCCCCCCC(=O)N[C@@H](Cc1cnc[nH]1)C(=O)N[C@H](Cc1ccccc1)C(=O)N[C@@H](CCCNC(=N)N)C(=O)N[C@@H](Cc1ccc(-c2ccccc2)cc1)C(N)=O [Peptide 2, Octanoyl-His-DPhe-Arg-Bip-NH2] (Octanoyl-H[dF]R[Bip]-NH2) is below 0.005 µM in terms of Kb.
Condition not met

Field: below-cutoff. Rule: recorded Kb strictly less than 0.005 µM. Subject: CCCCCCCC(=O)N[C@@H](Cc1c[nH]cn1)C(=O)N[C@H](Cc1ccccc1)C(=O)N[C@@H](CCCNC(=N)N)C(=O)N[C@H](Cc1ccc(-c2ccccc2)cc1)C(N)=O [Peptide 8, Octanoyl-His-DPhe-Arg-DBip-NH2] (Octanoyl-H[dF]R[dBip]-NH2)
Condition not met

Quick check: does CC(=O)N[C@@H](Cc1ccccc1)C(=O)N[C@H](Cc1ccc(I)cc1)C(=O)N[C@@H](CCCNC(=N)N)C(=O)N[C@@H](Cc1c[nH]c2ccccc12)C(N)=O [Peptide 15, Ac-Phe-(pI)DPhe-Arg-Trp-NH2] (Ac-F[dPhe(4-I)]RW-NH2) have Kb under 0.005 µM?
Condition not met

Lab log: compare recorded Kb with 0.005 µM; is it strictly lower for CC(=O)N[C@@H](Cc1c[nH]c2ccccc12)C(=O)N[C@H](Cc1ccc(-c2ccccc2)cc1)C(=O)N[C@@H](CCCNC(=N)N)C(=O)N[C@@H](Cc1c[nH]c2ccccc12)C(N)=O [Peptide 18, Ac-Trp-DBip-Arg-Trp-NH2] (Ac-W[dBip]RW-NH2) ?
Condition not met

Record CCCCCCCC(=O)N[C@@H](Cc1c[nH]cn1)C(=O)N[C@H](Cc1ccc(I)cc1)C(=O)N[C@@H](CCCNC(=N)N)C(=O)N[C@@H](Cc1c[nH]c2ccccc12)C(N)=O [Peptide 6, Octanoyl-His-(pI)DPhe-Arg-Trp-NH2] : is its Kb strictly below 0.005 µM?
Condition met

Kb under 0.005 µM? Item: CC(=O)N[C@@H](Cc1ccncc1)C(=O)N[C@H](Cc1ccc(I)cc1)C(=O)N[C@@H](CCCNC(=N)N)C(=O)N[C@@H](Cc1c[nH]c2ccccc12)C(N)=O [Peptide 16, Ac-4PAL-(pI)DPhe-Arg-Trp-NH2] (Ac-[4Pal][dPhe(4-I)]RW-NH2)
Condition met

Answer whether the compound CC(=O)N[C@@H](Cc1c[nH]cn1)C(=O)N[C@H](Cc1ccc(-c2ccccc2)cc1)C(=O)N[C@@H](CCCNC(=N)N)C(=O)N[C@H](Cc1ccc(-c2ccccc2)cc1)C(N)=O [Peptide 35, Ac-His-DBip-Arg-DBip-NH2] (Ac-H[dBip]R[dBip]-NH2) has Kb strictly less than 0.005 µM
Condition not met
